Molecular target: T1, CD73 on the surface of human tumor cells (human, UniProt P21589 27-549)
T1 chain: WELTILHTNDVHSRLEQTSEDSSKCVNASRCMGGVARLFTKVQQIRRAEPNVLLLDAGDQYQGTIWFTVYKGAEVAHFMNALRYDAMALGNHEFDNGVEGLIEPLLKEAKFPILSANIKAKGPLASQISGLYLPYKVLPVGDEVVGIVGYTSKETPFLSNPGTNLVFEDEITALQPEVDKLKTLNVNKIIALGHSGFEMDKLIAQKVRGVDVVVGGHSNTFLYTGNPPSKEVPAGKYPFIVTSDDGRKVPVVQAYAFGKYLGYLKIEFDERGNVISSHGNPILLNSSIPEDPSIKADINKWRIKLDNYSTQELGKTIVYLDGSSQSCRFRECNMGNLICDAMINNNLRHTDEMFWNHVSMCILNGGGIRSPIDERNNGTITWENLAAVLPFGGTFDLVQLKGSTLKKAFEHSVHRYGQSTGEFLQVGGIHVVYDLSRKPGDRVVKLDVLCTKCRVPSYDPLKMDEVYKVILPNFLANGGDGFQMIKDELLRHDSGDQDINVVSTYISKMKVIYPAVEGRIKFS
Experiment: FACS; MDA-MB-231 cells, left table
Documented EC50 across a set of binders

Binder	EC50, nM
Hu002c-8 (antibody, V domains shown) VH: QVQLVQSGAEVKKPGASVKVSCKASGYTLTSYWMHWVRQAPGQGLEWIGEINPSQGRSNYNEKFKSRVTLTVDRSTSTVYMELSSLRSEDTAVYYCARRGVSGNYFDYWGQGTLVTVSS VL: DIQMTQSPSSLSASVGDRVTITCKASQDINTYLSWFQQKPGKSPKSLIYRSNILVSGVPSRFSGSGSGQDYTLTISSLQPEDFAIYYCLQYDEFPYTFGGGTKLEI	0.662
mAb002c (antibody, V domains shown) VH: QVQLQQPGAELVKPGASVRLSCKASGYTLTSYWMHWVKKRPGQGLEWIGEINPSNGRSNYNEKFKSKATLTVDRSSSTVYMQLGSLTSEDSAVYYCARRGVSGNYFDYWGQGTTLTVSS VL: DIKMTQSPSSMYASLGERVTMTCKASQDINTYLSWFQQKPGKSPKTLIYRSNILVDGVPSRFSGSRSGQDYYLTITSLEYEDMGIYYCLQYDEFPYTFGGGTKLELK	0.466
mAb002c-VH-QG/VK-SG (antibody, V domains shown) VH: QVQLQQPGAELVKPGASVRLSCKASGYTLTSYWMHWVKKRPGQGLEWIGEINPSQGRSNYNEKFKSKATLTVDRSSSTVYMQLGSLTSEDSAVYYCARRGVSGNYFDYWGQGTTLTVSS VL: DIKMTQSPSSMYASLGERVTMTCKASQDINTYLSWFQQKPGKSPKTLIYRSNILVSGVPSRFSGSRSGQDYYLTITSLEYEDMGIYYCLQYDEFPYTFGGGTKLELK	0.557
Hu002c-4 (antibody, V domains shown) VH: QVQLVQSGAEVKKPGASVKVSCKASGYTLTSYWMHWVRQAPGQGLEWMGEINPSQGRSNYNEKFKSRVTMTRDTSTSTVYMELSSLRSEDTAVYYCARRGVSGNYFDYWGQGTLVTVSS VL: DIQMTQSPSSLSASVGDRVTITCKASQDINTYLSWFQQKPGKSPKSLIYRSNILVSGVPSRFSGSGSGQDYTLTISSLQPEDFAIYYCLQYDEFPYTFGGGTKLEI	0.696
Hu002c-2 (antibody, V domains shown) VH: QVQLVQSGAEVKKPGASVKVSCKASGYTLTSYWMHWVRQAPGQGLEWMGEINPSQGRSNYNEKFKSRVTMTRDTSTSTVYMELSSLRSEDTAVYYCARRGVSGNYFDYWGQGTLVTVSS VL: DIQMTQSPSSLSASVGDRVTITCKASQDINTYLSWFQQKPGKAPKSLIYRSNILVSGVPSRFSGSGSGQDYTLTISSLQPEDFATYYCLQYDEFPYTFGQGTKLEIK	0.666
Hu002c-6 (antibody, V domains shown) VH: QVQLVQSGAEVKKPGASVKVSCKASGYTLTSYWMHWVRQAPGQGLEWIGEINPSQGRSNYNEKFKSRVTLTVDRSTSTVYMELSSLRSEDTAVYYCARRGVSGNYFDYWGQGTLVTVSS VL: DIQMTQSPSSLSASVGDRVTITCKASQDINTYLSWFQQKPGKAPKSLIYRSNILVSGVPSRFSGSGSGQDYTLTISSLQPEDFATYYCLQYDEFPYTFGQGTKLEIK	0.69

Each recorded value in this set is attributed to patent US20210024646A1.
